- system-tested: T1, TNFR1 (Homo sapiens, UniProt P19438)
- T1 chain: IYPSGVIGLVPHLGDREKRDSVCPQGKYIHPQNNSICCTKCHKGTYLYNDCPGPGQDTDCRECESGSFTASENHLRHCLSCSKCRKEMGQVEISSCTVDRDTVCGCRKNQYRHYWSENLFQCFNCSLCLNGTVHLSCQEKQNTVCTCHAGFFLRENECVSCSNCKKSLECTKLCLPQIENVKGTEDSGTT
- test-summary: yeast display SC50
reported-property: apparent Kd (screen) (nM)

Below, each entry is followed by its recorded apparent Kd (screen) result.
E104D (designed binder) SMEEEVEKAAKEYEKKKKEAIEKHLEKLKAKDKEAAERFLKELEEAAKEYAKDEAKTMSEEEAKRRAKKYKEKVLLSELSEEEQKEIKEAEEKLVRTILKYVEDAAK ... 0.956
E4V (designed binder) SMEVEVEKAAKEYEKKKKEAIEKHLEKLKAKDKEAAERFLKELEEAAKEYAKDEAKTMSEEEAKRRAKKYKEKVLLSELSEEEQKEIKEAEEKLVRTILKYVEEAAK ... 1.05
I98K (designed binder) SMEEEVEKAAKEYEKKKKEAIEKHLEKLKAKDKEAAERFLKELEEAAKEYAKDEAKTMSEEEAKRRAKKYKEKVLLSELSEEEQKEIKEAEEKLVRTKLKYVEEAAK ... 4.83
D53K (designed binder) SMEEEVEKAAKEYEKKKKEAIEKHLEKLKAKDKEAAERFLKELEEAAKEYAKKEAKTMSEEEAKRRAKKYKEKVLLSELSEEEQKEIKEAEEKLVRTILKYVEEAAK ... 0.208
K18M (designed binder) SMEEEVEKAAKEYEKKKMEAIEKHLEKLKAKDKEAAERFLKELEEAAKEYAKDEAKTMSEEEAKRRAKKYKEKVLLSELSEEEQKEIKEAEEKLVRTILKYVEEAAK ... 1.05
Y13G (designed binder) SMEEEVEKAAKEGEKKKKEAIEKHLEKLKAKDKEAAERFLKELEEAAKEYAKDEAKTMSEEEAKRRAKKYKEKVLLSELSEEEQKEIKEAEEKLVRTILKYVEEAAK ... 2.48

A = E89D (designed binder) SMEEEVEKAAKEYEKKKKEAIEKHLEKLKAKDKEAAERFLKELEEAAKEYAKDEAKTMSEEEAKRRAKKYKEKVLLSELSEEEQKEIKDAEEKLVRTILKYVEEAAK
B = D32R (designed binder) SMEEEVEKAAKEYEKKKKEAIEKHLEKLKAKRKEAAERFLKELEEAAKEYAKDEAKTMSEEEAKRRAKKYKEKVLLSELSEEEQKEIKEAEEKLVRTILKYVEEAAK
Which of the two items, A and B , has the greater recorded apparent Kd (screen)? Respond using the label that marks the chosen record.
B
(B: 3.99 nM, A: 0.653 nM)

A = E19Q (designed binder) SMEEEVEKAAKEYEKKKKQAIEKHLEKLKAKDKEAAERFLKELEEAAKEYAKDEAKTMSEEEAKRRAKKYKEKVLLSELSEEEQKEIKEAEEKLVRTILKYVEEAAK
B = E5C (designed binder) SMEECVEKAAKEYEKKKKEAIEKHLEKLKAKDKEAAERFLKELEEAAKEYAKDEAKTMSEEEAKRRAKKYKEKVLLSELSEEEQKEIKEAEEKLVRTILKYVEEAAK
Pick one, A or B : lowest reported apparent Kd (screen). Respond using the label that marks the chosen record.
A

Values compiled from paper PMC12416549.
